Measured values drawn from ChEMBL document CHEMBL1201862 for this set.

For each of the compounds below, state its GI50.
System: LOX IMVI
Assay: NCI tumour cell line growth inhibition, 48 h
The source made the active and inactive calls. Rule as the data show it: active = GI50 up to about 1.1 µM and inactive = higher.

# input compound: COC1=C(OC)C(=O)C(Sc2ccc3ccccc3c2)=CC1=O ; wanted: its GI50
3.54 µM (inactive)

Which value of GI50 has been reported for COc1cc(C2c3[nH]c4ccc(F)cc4c3C[C@H]3COC(=O)N23)cc(OC)c1O (stereo partly specified) in the records?
5.43 µM (inactive)

Can you look up the measured GI50 of Cc1c(Cl)cccc1NC(=O)C(=O)C1C(=O)CC(C)(C)CC1=O for me?
> 100 µM (inactive)

Data request, read-out GI50, for COC(=O)c1cc(/C=C2\Cc3cc4c(cc3C2=O)CCC4)cc2c1CCC2
> 100 µM (inactive)

Returns the measured GI50 for the input compound. Input: CCc1c[n+]2c(cc1C1=CN3c4ccccc4[C@]45CCN6C/C(=C/CO)[C@H](C[C@H]64)[C@@H]([C@@H]1O)[C@H]35)-c1[nH]c3ccccc3c1CC2
> 50 µM (inactive)

# input compound: CC(=O)C1C(c2ccccc2)C2(C)OC(=O)C(C#N)C12C (stereo unspecified) ; wanted: its GI50
> 100 µM (inactive)

Need GI50 of Cc1c(-c2ccccc2)c(-c2ccc(OCCN(C)C)cc2)n2ccccc12 , thanks.
2.23 µM (inactive)

Fill blank: measured GI50 of the compound CP1(=O)CCCCC1 is ____.
> 100 µM (inactive)

Which GI50 value belongs to Cc1nc2cc([N+](=O)[O-])ccc2c(NCCCN(C)C)c1C ?
11 µM (inactive)

What does the record list as GI50 for Cc1ccc(-c2cc(=O)c3cc(C)c(C)c(C(=O)O)c3o2)cc1N ?
> 100 µM (inactive)

# lookup: GI50 of Cc1cc(-c2ccc(/N=N/c3ccc4c(S(=O)(=O)O)cc(S(=O)(=O)O)c(N)c4c3O)c(C)c2)ccc1/N=N/c1ccc2c(S(=O)(=O)O)cc(S(=O)(=O)O)c(N)c2c1O
> 100 µM (inactive)

Sample CC(C)(CCC(C)(C)c1ccccc1)c1ccccc1 — what was its GI50?
17.5 µM (inactive)

Fill blank: measured GI50 of the compound C/N=C/N(C)c1c2ccccc2nc2ccccc12 is ____.
> 100 µM (inactive)

What value of GI50 has been recorded for this entry: C=C1CN(C2=NCCO2)C1
> 100 µM (inactive)

Quick one: GI50 of Brc1cccc(/C=N/C23CC4CC(CC(C4)C2)C3)c1 ?
> 100 µM (inactive)

If you can, please state the reported GI50 value of CC(C)(C)[Si](C)(C)OCC1CCC(n2cnc3c(NC(=O)c4ccccc4)ncnc32)O1 (stereo unspecified) .
20.2 µM (inactive)

Entry O=C(NCCO)c1ccc([N+](=O)[O-])cc1 : reported GI50 = ?
> 100 µM (inactive)

Request the reported GI50 associated with Cc1ncc([N+](=O)[O-])n1CCNS(=O)(=O)CCCn1ncnc1[N+](=O)[O-]
> 100 µM (inactive)

Fill in the blank: the reported GI50 of Clc1ccc(-c2nn3c(COc4ccc(OCc5nnc6sc(-c7ccc(Cl)cc7)nn56)c(Cl)c4)nnc3s2)cc1 is ____.
17.9 µM (inactive)

Any idea what GI50 was measured for CCOc1ccc(NC(=O)/C(Cc2nc3ccccc3nc2O)=N\O)cc1 ?
> 100 µM (inactive)

Requested read-out: GI50. Entry: COc1ccc(C2=C(N)c3ncccc3C2=O)cc1
> 100 µM (inactive)

Item under review: O=C1CC(C(OCc2ccccc2)C(OCc2ccccc2)C(COCc2ccccc2)OCc2ccccc2)CC(=O)N1 (stereo unspecified) . Reported GI50?
> 75 µM (inactive)

Find the recorded GI50 belonging to CC[P+](C#Cc1ccccc1)(c1ccccc1)c1ccccc1 and report it.
1.82 µM (inactive)

Can you share its GI50? I mean this compound: C[Si](C)(c1ccccc1)[C@H]1CCCC=C1CCNC1c2ccccc2CCc2ccccc21
70.6 µM (inactive)

// returns reported GI50 for input O=C1C(Cl)=C(NCCN2CCOCC2)C(=O)c2c(O)ccc(O)c21
1.33 µM (inactive)

Which GI50 value is on record for O=C(C(=O)c1cc2ccccc2[nH]1)c1cc2ccccc2[nH]1 ?
> 347 µM (inactive)

Please look up its GI50: Cn1c2c([N+](=O)[O-])[se]nc2c(=O)n1-c1ccc([N+](=O)[O-])cc1
2.61 µM (inactive)

I am curious: what GI50 value has been reported for Cc1nc2ccccc2c(=O)n1/N=C(\N=N\c1ccc(Cl)cc1)c1ccc(N(C)C)cc1 ?
> 100 µM (inactive)

For the compound shown here, O=C(c1ccc(Cl)cc1)C(O)c1ccc(Cl)cc1 (stereo unspecified) , give the reported GI50.
> 100 µM (inactive)

Any idea what GI50 was measured for C=CCC1=C(C)C[C@@H]2CCC(=O)C=C12 ?
> 100 µM (inactive)

Please give the measured GI50 for this compound: CSc1nc(C)c(Br)c(=O)n1C1OC(COC(C)=O)C(OC(C)=O)C(OC(C)=O)C1OC(C)=O (stereo unspecified)
> 100 µM (inactive)

Record request: GI50 value, item CCOc1cc2c(cc1O)C(N)C[C@@H]1[C@@H]2CC[C@]2(C)[C@@H](O)CC[C@@H]12 (stereo partly specified)
34.2 µM (inactive)

Param item = O=C1Nc2ccccc2/C1=N/NC(=O)C(O)(c1ccccc1)c1ccccc1 ; retrieve measured GI50.
16.7 µM (inactive)

Consider the compound CCCCCCCCC(O)C#CC(N)=O (stereo unspecified) and give its measured GI50.
11.7 µM (inactive)

Please look up its GI50: COC(=O)c1c/c(=N\NC(=O)CC(=O)Nc2ccc(C)cc2)c2ccccc2o1
> 100 µM (inactive)

Endpoint output: GI50 of Cc1nc2ccccc2c(=O)n1/N=C(\N=N\c1cccc(Cl)c1)c1ccccc1Cl . Value?
> 100 µM (inactive)

* * *

Tested on: SF-539
Experiment: NCI tumour cell line growth inhibition, 48 h
Calls of active or inactive are those of the source. Rule as the data show it: active = GI50 up to about 1.1 µM and inactive = higher. Residues, ends and D or L forms follow the SMILES beside them. *: point of attachment. Boc = CC(C)(C)OC(=O)*; OBn = c1ccc(CO*)cc1
Provide the recorded GI50 for the entries that follow.

State the recorded GI50 for this entry: CC(C)CC(NC(=O)OC(C)(C)C)C(=O)NC(CC(=O)OCc1ccccc1)C(=O)OCc1ccccc1 (stereo not drawn) (Boc-Leu-Asp(OBn)-OBn; configuration not given here)
31 µM (inactive)

Query: GI50; subject: O=c1c2cc([N+](=O)[O-])cnc2sn1-c1ccc(Br)cc1
27.3 µM (inactive)

GI50 lookup needed for O=C1Nc2ccccc2/C1=N/NC(=O)C(O)(c1ccccc1)c1ccccc1 , thanks.
15.8 µM (inactive)

# lookup: GI50 of CN(C)CCCNC(=O)c1cccc2nc3ccccc3nc12
16.3 µM (inactive)

GI50 for O=C1NC2(CCCCCC2)C2CCCCCCC12O (stereo unspecified) ?
> 100 µM (inactive)

Dear colleague, I am looking for the recorded GI50 of the following molecule: CC1=NN(C(=O)Nc2ccc(Cl)cc2)C(=O)C2CCC(=O)N12 (stereo unspecified)
> 100 µM (inactive)

Item C=C1CCCC(C)(C)[C@@H]1CC/C(C)=C/Cn1c2cccc(=O)c-2nc2ccccc21 has what recorded GI50?
1.66 µM (inactive)

Look up GI50: CC12OC3(O)C4C5CC(C6C5C3C61)C42 (stereo unspecified)
> 100 µM (inactive)

Suppose we examine the molecule CCCCCCCCC(O)C#CC(N)=O (stereo unspecified) ; what GI50 value has been reported?
12.5 µM (inactive)

Quick one: GI50 of CC(=O)OC1C2CCC1C1C2C2(Cl)C(Cl)=C(Cl)C1(Cl)C2(Cl)Cl (stereo unspecified) ?
16.6 µM (inactive)

Can you look up the measured GI50 of O=c1n(CC2CO2)c(=O)n(CC2CO2)c(=O)n1CC1CO1 (stereo unspecified) for me?
7.76 µM (inactive)

Given the entry O=C(C=P(c1ccccc1)(c1ccccc1)c1ccccc1)c1ccc(-c2cccc([N+](=O)[O-])c2)cc1 , report its measured GI50.
4.46 µM (inactive)

Can you share its GI50? I mean this molecule: c1ccc(CN[C@]23C4C5CC6C7C5C2C7[C@@](NCc2ccccc2)(C64)N3Cc2ccccc2)cc1 (stereo partly specified)
> 100 µM (inactive)

Dear colleague, I am looking for the recorded GI50 of the following molecule: COc1ccc2c(c1OC)C(=O)O[C@@H]2[C@H]1c2cc3c(cc2CCN1C)OCO3
> 100 µM (inactive)

Recorded GI50 for COc1ccc(-c2cc(Cc3cccs3)c(=O)[nH]n2)cc1 , please?
> 100 µM (inactive)

Which measured GI50 value corresponds to COc1ccc(C2=C(N)c3ncccc3C2=O)cc1 ?
> 100 µM (inactive)
